- assaySystem: RSV prefusion F (preF), DS-Cav1 stabilized trimer, subtype A (Respiratory Syncytial Virus, subtype A, UniProt P03420 26-513)
- experimentalDetails: BLI, IgG on anti-human IgG sensors, 100 nM antigen, apparent KD
Field 'label' (enum: rule met / rule not met). Set to rule met when Kd is strictly under 0.2 nM; else rule not met.

Here's what some known entries look like.
ADI-43641 (antibody, V domains shown, also called Ab 946; Antibody Number 946) VH: EVQLVESGGGLVKPGGSLRLSCAASGFTFSDYYMSWIRQAPGKGLEWVSYISSSSSYTNYADSVKGRFTISRDNAKNSLYLQMNSLRAEDTAVYYCARDFSGQWLVLGYGMDVWGQGTTVTVSS VL: QSVVTQPPSVSGAPGQRVTISCTGSSSNIGAGYDVHWYQQLPGTAPKLLIYGNSNRPSGVPDRFSGSKSGTSASLAITGLQAEDEADYYCQSYDSSLSGPVFGGGTKLTVL; rule not met
ADI-41842 (antibody, V domains shown, also called Ab 942; Antibody Number 942) VH: QVQLVQSGAEVKKPGASVRVSCKASGYTFTHYDINWVRQAPGQGLEWMGWINPNSGDTDYAQKFQGRVTMTVDTSISTAYLDLRSLTSADAAVYYCARGGAYATNGYYIIWFDPWGQGTLVTVSS VL: DIVVTQSPSSLSASVGDRVTITCRASQSISRYLNWFQKKPGKAPHLLIYAASILQSEVPSRFSGSGSGTDFTLTISSLQPEDFATYYCQQSYNSPYTFGPGTKVDIK; rule not met
ADI-41827 (antibody, V domains shown) VH: EVQLSESAGGVVQPGGSLRLTCAASGFSFSTNGMHWVRQAPGKGLEWVAFIRYDGSKKYYAESVKGRFTISREDSNNTLYLQMNSLRPEDTAVYYCAKEDCSGGTCYHERNYYYYGMDVWGQGTTVTVSS VL: QPVLTQPPSLPVSPGQTASITCSGDKLEYKYACWYQHKPGQSPVLVIYQDNKRPSGIPERFSGSNSGNTATLTISGTQPMDEADYYCQAWDSSTVVFGGGTKVTVL; rule met

Report whether reported Kd is lower than 0.2 nM (strictly) for ADI-41839 (antibody, V domains shown, also called Ab 939; Antibody Number 939) VH: EVQLLESGGGVVQPGGSLRLSCVASGFTFSAYGMHWVRQAPGKGPEWVAMTRSDGNKIYYADSVKGRFTISRDDSKNTLYLEMNSLRPDDTAVYFCAKEVGYGGNSLHYWGQGTLVTVSS VL: SYELIQPPSVSVAPGQTAKITCGGNNIGSKSVHWYQQKPGQAPVLVVFDDSDRPSGIPERFSGSNSGNTATLTISRVEAGDEADYYCQVWDFSSDLWVFGGGTKLTVL
rule not met

Report whether reported Kd is lower than 0.2 nM (strictly) for ADI-41828 (antibody, V domains shown) VH: EVQLVESGGGLVQPGGSLRLSCADSDFTFSTYSMNWVRQAPGKGLEWISYITGRSSAIYYADSVKGRFTISRDNAKNSLFLQMNSLRAEDTAVYYCTTFMAGYSFGHGDAFDIWGQGTTVTVSS VL: SYELTQPPSVSVAPGQTARITCGGNNIGSKSVHWYQQKPGQAPVLVVYDDSDRPSGIPERFSGSNSGNTATLTISRVEAGDEADYYCQVWNSNSDHPHWVFGGGTQLTVL
rule not met

Data credit: patent US20260258115A1
